# tgt: T1, High Mobility Group Box 1 (HMGB1), full length (UniProt P09429 1-215, RED-tris-NTA dye on the His tag (His-Tag Labeling Kit RED-tris-NTA 2nd Generation) in the MST)
# T1 construct: HMGB1, full length; also called recombinant HMGB1; source: produced at the Protein Facility of the Institute for Research in Biomedicine as previously described
# T1 sequence (looked up): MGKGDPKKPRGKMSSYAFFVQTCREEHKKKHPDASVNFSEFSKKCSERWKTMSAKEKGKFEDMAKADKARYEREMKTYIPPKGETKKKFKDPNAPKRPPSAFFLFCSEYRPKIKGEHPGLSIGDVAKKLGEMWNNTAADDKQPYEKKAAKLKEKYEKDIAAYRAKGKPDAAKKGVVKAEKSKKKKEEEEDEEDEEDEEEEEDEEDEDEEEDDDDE
# protocol.summary: MST; 10 nM target protein labelled on its His tag (RED-tris-NTA) mixed with sixteen 1:1 serial dilutions of the peptide; PBS-T (0.05 % Tween 20); incubated at least 40 min at room temperature; 25 °C; Monolith NT.115 Pico, excitation 20 %, MST power 40 %
# experimental.parameters: both partners purified
quantity.measured: Kd (nM)
Reply with just the number (in nM).

Prompt line: Kd lookup needed for PRHYQMWIH (Reconstituted in DMSO; also called G1P + E5Q; source: synthetic peptide, synthetized by Proteogenix (without TFA), purity about 99 %) [HBP08–2] , thanks.
Response line: 28.1

meta.source: paper PMC12925725
